System: α1-acid glycoprotein (AGP)
protocolSummary: HPLC on immobilized AGP column, affinity and % plasma–protein binding
Type: in vitro ADME, human
conditionInfo: human, pH 7.4; % plasma–protein binding converted from log K AGP (Equation 10); read-out: %PPB AGP (converted)
outcomeMeasure: fraction unbound

molecule | outcomeMeasure | observedMeasurement
O=C(COc1ccccc1)NNC(=S)Nc1cccc2ccccc12 [Compound 18] | fraction unbound | 0.142
CSc1ccc(NC(=S)NNC(=O)COc2ccccc2)cc1 [Compound 17] | fraction unbound | 0.169
O=C(COc1ccccc1)NNC(=S)Nc1cccc(I)c1 [Compound 8] | fraction unbound | 0.114

I = O=C(COc1ccccc1)NNC(=S)Nc1cccc(Br)c1 [Compound 7]
II = O=C(COc1ccccc1)NNC(=S)Nc1ccc(Cl)cc1 [Compound 10]
Please state the entry with greater fraction unbound among I and II . Field: selected label. Fill in the label of the entry you choose.
II

====

protocolSummary: HPLC lipophilicity on IAM (immobilized artificial membrane, phosphatidylcholine) stationary phase
Type: physicochemical
conditionInfo: intercept, linear extrapolation to water; ACN/20 mM phosphate buffer, pH 7.4
outcomeMeasure: log kw IAM

compound | outcomeMeasure | observedMeasurement
O=C(COc1ccccc1)NNC(=S)Nc1ccc(Br)cc1 [Compound 11] | log kw IAM | 2.1020

1 = O=C(COc1ccccc1)NNC(=S)Nc1ccc([N+](=O)[O-])cc1 [Compound 16]
2 = O=C(COc1ccccc1)NNC(=S)Nc1cccc(I)c1 [Compound 8]
When their log kw IAM values are compared, which is larger, 1 or 2 ? When you have decided, please share the label of that item.
2

====

protocolSummary: HPLC lipophilicity on IAM (immobilized artificial membrane, phosphatidylcholine) stationary phase
Type: physicochemical
conditionInfo: slope of Soczewiński–Wachtmeister equation; ACN/20 mM phosphate buffer, pH 7.4
outcomeMeasure: -S IAM

sampleSmiles | -S IAM
O=C(COc1ccccc1)NNC(=S)Nc1ccccc1I | 5.3942
O=C(COc1ccccc1)NNC(=S)Nc1ccccc1 | 4.4559
O=C(COc1ccccc1)NNC(=S)Nc1ccc(F)cc1 | 5.1370
O=C(COc1ccccc1)NNC(=S)Nc1cccc2ccccc12 | 5.6500

====

studySystem: human serum albumin (HSA) (Homo sapiens)
Construct: purchased Chiralpac
Sequence (P02768 25-609): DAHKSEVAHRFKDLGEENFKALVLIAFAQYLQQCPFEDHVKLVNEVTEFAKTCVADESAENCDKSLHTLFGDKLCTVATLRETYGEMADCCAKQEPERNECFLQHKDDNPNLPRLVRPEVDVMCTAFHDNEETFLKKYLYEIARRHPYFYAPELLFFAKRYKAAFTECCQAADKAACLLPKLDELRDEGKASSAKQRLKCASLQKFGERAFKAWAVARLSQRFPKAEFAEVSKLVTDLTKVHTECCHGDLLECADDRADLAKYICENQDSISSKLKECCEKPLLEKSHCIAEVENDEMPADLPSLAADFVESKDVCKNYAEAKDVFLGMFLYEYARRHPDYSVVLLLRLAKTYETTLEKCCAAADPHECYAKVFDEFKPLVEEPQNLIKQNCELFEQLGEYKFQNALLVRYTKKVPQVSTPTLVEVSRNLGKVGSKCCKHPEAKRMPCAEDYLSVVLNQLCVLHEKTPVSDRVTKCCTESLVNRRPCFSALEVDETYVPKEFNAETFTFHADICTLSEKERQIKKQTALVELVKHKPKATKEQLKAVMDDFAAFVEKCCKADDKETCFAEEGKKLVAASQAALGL
protocolSummary: HPLC on immobilized HSA column, affinity and % plasma–protein binding
Type: in vitro ADME
conditionInfo: retention on HSA column; 50 mM ammonium acetate pH 7.4 / propan-2-ol 85/15 (v/v)
outcomeMeasure: log k HSA

Before answering, review these 3 worked examples.
sampleSmiles | studySystem | observedMeasurement
O=C(COc1ccccc1)NNC(=S)Nc1ccc(Cl)cc1Cl | human serum albumin (HSA) (Homo sapiens) | 1.3649
O=C(COc1ccccc1)NNC(=S)Nc1ccc(Cl)cc1 | human serum albumin (HSA) (Homo sapiens) | 1.5981
O=C(COc1ccccc1)NNC(=S)Nc1ccc(Br)cc1 | human serum albumin (HSA) (Homo sapiens) | 1.685

I = O=C(COc1ccccc1)NNC(=S)Nc1ccccc1F
II = O=C(COc1ccccc1)NNC(=S)Nc1cc(Cl)ccc1Cl
Thinking about recorded log k HSA values, which is higher, I or II ? Output the label that corresponds to your choice.
II
(II: 1.8689, I: 0.9750)

I = O=C(COc1ccccc1)NNC(=S)Nc1ccccc1I
II = O=C(COc1ccccc1)NNC(=S)Nc1cccc(Br)c1
Consider entries I and II . Which has the numerically lower log k HSA? Write down the label of the entry you select.
I
(I: 1.1899, II: 1.8991)

A = O=C(COc1ccccc1)NNC(=S)Nc1ccccc1Cl
B = O=C(COc1ccccc1)NNC(=S)Nc1ccc([N+](=O)[O-])cc1
In the pair A and B , the larger recorded log k HSA belongs to which? Answer = label.
B
